Reference for the values: ChEMBL document CHEMBL1133857

- study-system: Beta-2 adrenergic receptor and beta-3 adrenergic receptor (Homo sapiens) (UniProt P07550+P13945)
- measurement-notes: Selectivity as the ratio of Ki of beta-2 adrenergic receptor to the Ki of beta-3 adrenergic receptor.
- Format: protein assay
quantity: Selectivity

CS(=O)(=O)Nc1cc([C@@H](O)CNC(c2ccccc2)c2ccccc2)ccc1O
5
CS(=O)(=O)Nc1cc(C(O)CNC(CCCCC(=O)O)Cc2ccccc2)ccc1O (stereo not given)
0.3
CS(=O)(=O)Nc1cc(C(O)CNC(Cc2ccccc2)C2CCCCC2)ccc1O (stereo not given)
0.7
COc1ccc(CCNCC(O)c2ccc(O)c(NS(C)(=O)=O)c2)cc1 (stereo not given)
0.3

Turning now to a further compound:
Task: Tell me Selectivity reported for COC(=O)CCCCC(Cc1ccccc1)NCC(O)c1ccc(O)c(NS(C)(=O)=O)c1 (stereo not given)
Output: 5

====

- study-system: Adrenergic receptor beta; ADRB1 & ADRB3 (Homo sapiens) (UniProt P08588+P13945)
- Sequence (P08588 whole entry, looked up): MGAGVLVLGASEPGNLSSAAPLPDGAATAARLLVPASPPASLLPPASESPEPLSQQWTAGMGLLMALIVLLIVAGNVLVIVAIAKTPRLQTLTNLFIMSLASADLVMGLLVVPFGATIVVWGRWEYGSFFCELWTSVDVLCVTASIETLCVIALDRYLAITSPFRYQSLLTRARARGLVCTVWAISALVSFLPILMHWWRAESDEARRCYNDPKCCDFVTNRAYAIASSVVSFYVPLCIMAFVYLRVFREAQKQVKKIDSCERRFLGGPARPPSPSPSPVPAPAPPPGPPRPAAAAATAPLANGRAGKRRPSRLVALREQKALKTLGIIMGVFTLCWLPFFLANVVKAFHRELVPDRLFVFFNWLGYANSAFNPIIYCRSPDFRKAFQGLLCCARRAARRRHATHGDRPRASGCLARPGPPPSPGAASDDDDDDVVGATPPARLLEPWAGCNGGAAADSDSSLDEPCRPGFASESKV
- Sequence (P13945 whole entry, looked up): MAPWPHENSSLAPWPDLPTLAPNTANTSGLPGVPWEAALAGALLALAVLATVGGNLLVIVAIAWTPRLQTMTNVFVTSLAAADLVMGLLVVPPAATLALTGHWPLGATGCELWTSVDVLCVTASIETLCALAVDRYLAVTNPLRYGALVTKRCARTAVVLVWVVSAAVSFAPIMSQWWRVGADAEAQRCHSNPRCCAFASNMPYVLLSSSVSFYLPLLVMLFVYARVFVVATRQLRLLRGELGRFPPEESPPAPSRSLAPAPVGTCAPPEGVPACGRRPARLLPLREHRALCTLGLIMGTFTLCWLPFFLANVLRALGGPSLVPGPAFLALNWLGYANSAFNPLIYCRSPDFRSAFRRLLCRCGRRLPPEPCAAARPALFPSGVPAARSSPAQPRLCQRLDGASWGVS
- measurement-notes: Selectivity measured as the ratio of Ki of Beta-1 Adrenergic receptor to the Ki of Beta-3 Adrenergic receptor
- Type: protein assay
quantity: Selectivity
Give bare numbers.

Record Selectivity for all entries; do not skip any.
1. COc1ccc(CCNCC(O)c2ccc(O)c(NS(C)(=O)=O)c2)cc1OC (stereo not given)
2. CS(=O)(=O)Nc1cc(C(O)CNC(Cc2ccccc2)c2ccc(Cl)c(Cl)c2)ccc1O (stereo not given)
3. COc1ccc(C(C)(NC[C@H](O)c2ccc(O)c(NS(C)(=O)=O)c2)c2ccc(OC)cc2)cc1
4. CC(=O)Nc1ccc(C(NC[C@H](O)c2ccc(O)c(NS(C)(=O)=O)c2)c2ccc(NC(C)=O)cc2)cc1
5. CCCCCC(Cc1ccccc1)NCC(O)c1ccc(O)c(NS(C)(=O)=O)c1 (stereo not given)

Output:
1. 4
2. 9
3. 3
4. 17
5. 8

====

Consider the following pKi values measured on Beta-3 adrenergic receptor (Homo sapiens, UniProt P13945).
Give bare numbers, as −log10 of the molar value.

Below, 2 compounds whose answers are already recorded.
CS(=O)(=O)Nc1cc([C@@H](O)CNC(c2ccccc2)c2ccccc2)ccc1O
5.24
CS(=O)(=O)Nc1cc(C(O)CN)ccc1O (stereo not given)
4.77

Record pKi for all entries; do not skip any.
1. CCC(C)(C)NCC(O)c1ccc(O)c(NS(C)(=O)=O)c1 (stereo not given)
2. CS(=O)(=O)Nc1cc([C@@H](O)CNC(c2ccc(F)cc2)c2ccc(F)cc2)ccc1O
3. COc1ccc(CCNCC(O)c2ccc(O)c(NS(C)(=O)=O)c2)cc1 (stereo not given)

Output:
1: 5.43; 2: 5.55; 3: 6.32

Record pKi for all entries; do not skip any.
1. CC(NC[C@H](O)c1ccc(O)c(NS(C)(=O)=O)c1)(c1ccc(OC(F)F)cc1)c1ccc(OC(F)F)cc1
2. CS(=O)(=O)Nc1cc(C(O)CNC23CC4CC(CC(C4)C2)C3)ccc1O (stereo not given)
3. CS(=O)(=O)Nc1cc(C(O)CNCc2ccccc2)ccc1O (stereo not given)
4. COc1ccc(C(NC[C@H](O)c2ccc(O)c(NS(C)(=O)=O)c2)(C(N)=O)c2ccc(OC)cc2)cc1
5. CS(=O)(=O)Nc1cc(C(O)CNC(Cc2ccccc2)c2ccc(Cl)c(Cl)c2)ccc1O (stereo not given)

Output:
[7.09, 4.96, 4.90, 6.66, 6.38]
